- Test system: methicillin-resistant S. aureus USA300
- Assay Explanation: cells
- Type: cell-based, Staphylococcus aureus
- Test Conditions: Staphylococcus aureus, USA300, Erythrocyte, 8 h, read-out: IC50 for the inhibition of erythrocyte hemolysis, human RBCs, 8 h incubation of USA300 with compound
pIC50 for assorted compounds
pIC50 is a log-scale quantity: -log10 of the concentration expressed in molar.

> print(dat)
                                   compound  measured.result
1  C=C(C)C(O)CC/C(C)=C/Cc1c(O)ccc(C(=O)CC(O)c2ccc(O)cc2)c1O (centres unmarked)             5.40

Pending compound:
Q: Name the recorded pIC50 of the compound listed here: C=C(C)C(O)CC/C(C)=C/Cc1c(O)ccc(C(=O)/C=C/c2ccc(O)cc2)c1O (centres unmarked)
A: 5.34
